Data origin, for the record: patent US11883381B2

Target: ASH1L SET-BAH construct (amino acids 2069-2833) (Homo sapiens, UniProt Q9NR48)
Construct: ASH1L SET-BAH construct (amino acids 2069-2833) at 0.25 μM was incubated with 0.7 μM SAM; MOCR fusion (TEV-cleavable)
Assay: ASH1L histone methyltransferase assay (KMTase assay)
Conditions: Table 6 section headings give the IC50 class; assay not given
pIC50: −log10 of the molar value.
quantity_name: pIC50

1) NC(=S)c1cccc(-c2cn(CC(CF)CF)c3cc(CNC(=O)c4cnc[nH]4)ccc23)c1 :: > 4.70
2) NC(=S)c1ccc(O)c(-c2cccc3[nH]ncc23)c1 :: < 4.00
3) NC(=S)c1cccc(-c2cn(CC(CF)CF)c3cc(NC(=O)c4cc[nH]c4)ccc23)c1 :: > 4.70
4) NC(=S)c1cccc(-c2cn(CC(CO)(C(F)F)C(F)F)c3cc(CO)ccc23)c1 :: > 4.70
5) NC(=S)c1cccc(-c2cn(CC(CF)CF)c3cc(CNC(=O)CC(F)(F)F)ccc23)c1 :: > 4.70
6) NC(=S)c1cccc(-c2cn(C(C(F)(F)F)C(F)(F)F)c3cc(CO)ccc23)c1 :: > 4.70
7) CC(=O)Nc1ccc2c(-c3cccc(C(N)=S)c3)cn(CC(CF)CF)c2c1 :: > 4.70
8) NC(=S)c1cccc(-c2cn(-c3ccc[nH]3)c3cc(CO)ccc23)c1 :: > 4.70
9) NC(=S)c1cccc(-c2cn(CC(CO)(C(F)F)C(F)F)c3cc(C(O)CF)ccc23)c1 (stereo not drawn) :: > 4.70
10) NC(=S)c1cccc(-c2cn(CCCC(F)(F)F)c3cc(CNCc4ccccc4)ccc23)c1 :: > 4.70
11) NC(=O)NCc1ccc2c(-c3cccc(C(N)=S)c3)cn(CC(CF)CF)c2c1 :: > 4.70
12) NC(=S)c1cccc(-c2cn(CC(CF)CF)c3cc(NC(=O)CCOCCOCCOCCOc4cccc5c4C(=O)N(C4CCC(=O)NC4=O)C5=O)ccc23)c1 (stereo not drawn) :: > 4.70
13) NC(=S)c1cccc(-c2c[nH]c3ccccc23)c1 :: 4.00 to 4.70
14) NC(=S)c1cccc(-c2cn(CC(CF)CF)c3cc(C(O)CC(F)(F)F)ccc23)c1 (stereo not drawn) :: > 4.70
15) NC(=S)c1cccc(-c2cccc3[nH]ccc23)c1 :: < 4.00
